// data source = PubChem BioAssay (NCI)

experiment: NCI Yeast Anticancer Drug Screen. Data for the bub3 strain (AID 167); settings: S. cerevisiae bub3 mutant strain, at 5.0 µM (retest, dose inferred, filed as 0.5), stronger effect = higher value
The panel holds about 79,000 compounds, 15% with a hit somewhere; the sample as a whole holds those more often.
PROPERTY_LABEL: growth inhibition (%)
Write the value in % as a bare number.

INSERT INTO results (compound, obs_value) VALUES
  ('CCCCCc1ccc2cc(C(=O)O)[nH]c2c1', 1),
  ('Brc1cc2ccccc2c2ccccc12', 23),
  ('Cc1ccc(S(=O)(=O)Nc2ccc3c(c2)C(=O)c2ccccc2-3)cc1', 6),
  ('O=Nc1ccccc1N=O', 80),
  ('O=C(N/C(=C\c1ccccc1Cl)c1nc2ccccc2s1)c1ccccc1', 30),
  ('CC(=O)Nc1ccc(C(=O)n2[nH]c(C)c(/C=C3\C(=O)C=Cc4ccccc43)c2=O)cc1', 24),
  ('CC(=O)c1c2c(cc3c1CC1(C3)Cc3ccc4c(c3C1=O)CCC4)CCC2 (stereo unspecified)', 12),
  ('CC(C)CC(NC(=O)COc1c(Cl)cc(Cl)c(Cl)c1Cl)C(=O)O (stereo unspecified)', 5);

Q: Bench note: what growth inhibition did `COC1=CC(=O)c2c(O)c3c(c(O)c2C1=O)C[C@](C)(O)C[C@@H]3O` show?
Result: 36

Q: Bench note: what growth inhibition did CC(=O)N1c2ccccc2C2=NN=C(N(C)C)SC21 (stereo unspecified) show?
Result: -14

Q: Bench note: what growth inhibition did `COc1ccc(C2=C(Cl)C(=O)N(c3ccc(OC)cc3OC)C(=O)C2(Cl)Cl)cc1` show?
Result: -5

Q: Bench note: what growth inhibition did `Nc1ccc(S(=O)(=O)Nc2nc3ccccc3nc2N2CCCCCC2)cc1` show?
Result: 44

Q: Bench note: what growth inhibition did `O=C(/C=C/C(=O)c1ccc(O)cc1)c1ccccc1` show?
Result: -6

Q: Bench note: what growth inhibition did `CSC(=S)NN=C1CCCCC1` show?
Result: 81

Q: Bench note: what growth inhibition did `Cc1cc2cc3c(c(C(=O)O)c2o1)C(=O)c1ccc2ccccc2c1C3` show?
Result: 14

Q: Bench note: what growth inhibition did `O=[N+]([O-])c1ccc(Cc2nc3ccccc3s2)cc1` show?
Result: 41

----------
experiment: NCI Yeast Anticancer Drug Screen. Data for the cln2 rad14 strain (AID 165);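 note: 0% = growth equal to vehicle treated cultures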; conditions: S. cerevisiae cln2 rad14 strain, at 50.0 µM (retest, dose inferred, filed as 5.0), stronger effect = higher value
This is part of a sample that, as a whole, favours compounds with a hit. Of some 79,000 tested, about 15% had one in any assay.
Quick reference for growth inhibition among some compounds
Write the value in % as a bare number.

For orientation, consider the following solved cases.
INSERT INTO measurements (compound, obs_value) VALUES
  ('c1ccc(-c2cnc3nc4ccccc4nc3n2)cc1', 3),
  ('Cc1cc(=O)oc2c(C)c3oc(CBr)cc3cc12', 56),
  ('CCOC(=O)C(NC(=O)C(CO)n1c(-c2ccccc2)c(-c2ccccc2)oc1=O)C(=O)OCC (centres undefined)', 51);

Q: Bench note: what growth inhibition did CSc1ncnc2ncn(C3OC(CO)C(O)C3O)c12 (centres undefined) show?
Result: -3

----------
Quick reference for growth inhibition among some molecules
assay: NCI Yeast Anticancer Drug Screen. Data for the bub3 strain (AID 167); conditions: S. cerevisiae bub3 mutant strain, at 5.0 µM (retest, dose inferred, filed as 0.5), stronger effect = higher value
This is part of a sample that, as a whole, favours compounds with a hit. Of some 79,000 tested, about 15% had one in any assay.
Write the value in % as a bare number.

For orientation, consider the following solved cases.
INSERT INTO measurements (molecule, property_label, value_unit, obs_value) VALUES
  ('O=[N+]([O-])c1ccc(NCc2ccccc2)c([N+](=O)[O-])c1', 'growth inhibition', '%', 19),
  ('O=c1cc(CI)oc2ccccc12', 'growth inhibition', '%', 45),
  ('O=C1c2ccc3ccccc3c2CN2C(=O)CCC12 (configuration not stated)', 'growth inhibition', '%', -5),
  ('CCOc1c(N=Nc2ccccc2OC)c(C)nn1C(N)=S', 'growth inhibition', '%', 1);

Next molecule, please.
Q: Bench note: what growth inhibition did `Cc1cccc(/C=N/Nc2cc(C)c3ccccc3n2)n1` show?
Result: -5

----------
experiment: NCI Yeast Anticancer Drug Screen. Data for the bub3 strain (AID 167); conditions: S. cerevisiae bub3 mutant strain, at 5.0 µM (retest, dose inferred, filed as 0.5)
About 79,000 compounds went through this panel and 15% of them were active in at least one assay; those are over-represented in the sample as a whole. Active and inactive are the calls of the source. No stated cut-off is given here; in the data, active means growth inhibition above about 70%; inactive means the rest.
Returns: one label drawn from true (active), false (inactive)

INSERT INTO results (compound, group_label) VALUES
  ('CCC[CH2][Sn]([CH2]CCC)([O]C(=O)c1c(F)cccc1F)[O]C(=O)c1c(F)cccc1F', 'true'),
  ('OC[P+](CO)(CO)C12CC3CC(CC(C3)C1)C2', 'false'),
  ('COc1ccc2nc3cc([N+](=O)[O-])ccc3c(NNc3ccc([N+](=O)[O-])cc3)c2c1', 'false');

Q: Call for entry `O=C(O)CCCc1ccc2c(c1Br)C=CC2` :
Result: false

Q: Call for entry CCc1ccccc1NC(=O)C1=C(C)NC(C)=C(C(=O)Nc2c(CC)cccc2CC)C1c1ccc2c(c1)OCO2 (stereo not given) :
Result: false

Q: Call for entry `Cc1ccc2c(ccc(CC(=S)[S-])[n+]2C)c1` :
Result: false

Q: Call for entry CC(CO)[C@H]1OC(=O)C=C2[C@@]13O[C@@H]3[C@H]1OC(=O)[C@@]3(C)[C@H]4O[C@H]4C[C@@]2(C)[C@@H]13 (stereo not given in full) :
Result: false

Q: Call for entry `Cn1cc(/C=C/[N+](=O)[O-])c2ccc(OCc3ccccc3)cc21` :
Result: false

Q: Call for entry `CCOC(=S)SCc1nc2ccccc2[nH]1` :
Result: false

Q: Call for entry OCC(O)C(O)C(O)C(O)C(O)C(/C=N/Nc1ccccc1)=N/Nc1ccccc1 (stereo not given) :
Result: false

----------
assay: NCI Yeast Anticancer Drug Screen. Data for the mec2-1 strain (AID 157); conditions: S. cerevisiae mec2-1 strain, at 50.0 µM
About 79,000 compounds went through this panel and 15% of them were active in at least one assay; those are over-represented in the sample as a whole. Calls of active or inactive are those of the source. Rule as the data show it: active = growth inhibition above about 70%; inactive = the rest.
Returns: one label drawn from active, inactive

Example entries begin here.
INSERT INTO assay_data (compound, group_label) VALUES
  ('COc1cccnc1/C=N/NC(N)=S', 'inactive'),
  ('O=C1C2=Cc3ccccc3CCN2c2ccccc21', 'active'),
  ('CCCC(O)C[N+](=O)[O-] (stereo not given)', 'inactive'),
  ('CC(C)OC(=O)c1ccc(NCC2=CC(=O)C=CC2=O)cc1Cl', 'active');

In the following, a different compound is considered.
Q: Call for entry `c1coc(C2=Nc3cccc4cccc(c34)N2)c1` :
Result: inactive

----------
assay: NCI Yeast Anticancer Drug Screen. Data for the mec2-1 strain (AID 157); settings: S. cerevisiae mec2-1 strain, at 5.0 µM (retest, dose inferred, filed as 0.5), stronger effect = higher value
About 79,000 compounds went through this panel and 15% of them were active in at least one assay; those are over-represented in the sample as a whole.
PROPERTY_LABEL: growth inhibition (%)
Write the value in % as a bare number.

Q: Bench note: what growth inhibition did `N#C/C=C(\c1ccccc1)c1c[nH]c2ccccc12` show?
Result: -46

Q: Bench note: what growth inhibition did Nc1nc(N)c2nc(CNc3ccc(C(=O)NC(CCC(=O)O)C(=O)O)cc3)cnc2n1 (stereo not given) show?
Result: -3

Q: Bench note: what growth inhibition did `CCOc1c(Br)cc(Br)cc1/C=N/NS(=O)(=O)c1ccc(C)cc1` show?
Result: 26

Q: Bench note: what growth inhibition did CC(=O)OCC1(O)OCC(OC(C)=O)C(OC(C)=O)C1OC(C)=O (stereo not given) show?
Result: -15

Q: Bench note: what growth inhibition did `O=C(/C=C/c1cccc(Cl)c1)c1ccccc1` show?
Result: -9

----------
assay: NCI Yeast Anticancer Drug Screen. Data for the sgs1 mgt1 strain (AID 161);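 note: 0% = growth of cultures given vehicle only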; details: S. cerevisiae sgs1 mgt1 strain, at 50.0 µM, stronger effect = higher value
This is part of a sample that, as a whole, favours compounds with a hit. Of some 79,000 tested, about 15% had one in any assay.
Quick rule for you: growth inhibition at 90% or higher means T, lower means F.

Q: Given COCC1C(=O)c2cc3c(cc2C12C=CC1(C=C2)OCCO1)OCO3 (stereo not given) , state whether its growth inhibition is at least 90%.
Result: T

Q: Given `Nc1n[n+](-c2ccccc2)no1` , state whether its growth inhibition is at least 90%.
Result: F

Q: Given Cc1ccc(C)c(NC(=O)CCC(=O)C(C#N)c2cccc3ccccc23)c1 (stereo not given) , state whether its growth inhibition is at least 90%.
Result: F

Q: Given `CSC(=S)N/N=C(\C)c1nccnc1C` , state whether its growth inhibition is at least 90%.
Result: T

Q: Given `O=C(NCCc1c(-c2ccccc2)[nH]c2ccccc12)C(F)(F)F` , state whether its growth inhibition is at least 90%.
Result: F
